normalized RNA/DNA level without ligand (log10) listing for selected variants.
B1: library; a variant is named by its letters at N, in order (parent)
chain: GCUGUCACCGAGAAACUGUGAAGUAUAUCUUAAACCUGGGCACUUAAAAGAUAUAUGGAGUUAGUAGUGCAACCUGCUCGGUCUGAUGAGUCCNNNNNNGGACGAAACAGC

- Variants of: B1
- assay-overview: normalized RNA/DNA level without ligand (relative to sTRSVctl = 100) (log10 (% of sTRSVctl)); HEK293T; ligand: cyclic di-GMP (c-di-GMP-II aptamer); higher = less ribozyme self-cleavage, higher mRNA level
- recorded-conditions: reporter: mCherry (pCS4076), ligand present: no
Form field (numeric): enter value without unit.

> print(dat)
                         construct.sequence  measured.number
1  GCUGUCACCGAGAAACUGUGAAGUAUAUCUUAAACCUGGGCACUUAAAAGAUAUAUGGAGUUAGUAGUGCAACCUGCUCGGUCUGAUGAGUCCUCACAAGGACGAAACAGC [UCACAA]             1.55
2  GCUGUCACCGAGAAACUGUGAAGUAUAUCUUAAACCUGGGCACUUAAAAGAUAUAUGGAGUUAGUAGUGCAACCUGCUCGGUCUGAUGAGUCCACCCUCGGACGAAACAGC [ACCCUC]             1.78
3  GCUGUCACCGAGAAACUGUGAAGUAUAUCUUAAACCUGGGCACUUAAAAGAUAUAUGGAGUUAGUAGUGCAACCUGCUCGGUCUGAUGAGUCCGUGUUUGGACGAAACAGC [GUGUUU]             1.72

Input line: Can you look up the measured normalized RNA/DNA level without ligand (log10) of GCUGUCACCGAGAAACUGUGAAGUAUAUCUUAAACCUGGGCACUUAAAAGAUAUAUGGAGUUAGUAGUGCAACCUGCUCGGUCUGAUGAGUCCGUGCGGGGACGAAACAGC [GUGCGG] for me?
Output line: 1.86

Input line: Can you look up the measured normalized RNA/DNA level without ligand (log10) of GCUGUCACCGAGAAACUGUGAAGUAUAUCUUAAACCUGGGCACUUAAAAGAUAUAUGGAGUUAGUAGUGCAACCUGCUCGGUCUGAUGAGUCCAGGGAUGGACGAAACAGC [AGGGAU] for me?
Output line: 1.54

Input line: Can you look up the measured normalized RNA/DNA level without ligand (log10) of GCUGUCACCGAGAAACUGUGAAGUAUAUCUUAAACCUGGGCACUUAAAAGAUAUAUGGAGUUAGUAGUGCAACCUGCUCGGUCUGAUGAGUCCAUAAUUGGACGAAACAGC [AUAAUU] for me?
Output line: 1.55

Input line: Can you look up the measured normalized RNA/DNA level without ligand (log10) of GCUGUCACCGAGAAACUGUGAAGUAUAUCUUAAACCUGGGCACUUAAAAGAUAUAUGGAGUUAGUAGUGCAACCUGCUCGGUCUGAUGAGUCCAGCUGCGGACGAAACAGC [AGCUGC] for me?
Output line: 1.74

Input line: Can you look up the measured normalized RNA/DNA level without ligand (log10) of GCUGUCACCGAGAAACUGUGAAGUAUAUCUUAAACCUGGGCACUUAAAAGAUAUAUGGAGUUAGUAGUGCAACCUGCUCGGUCUGAUGAGUCCCGUUUCGGACGAAACAGC [CGUUUC] for me?
Output line: 1.59
